assay: Pharmacokinetic study in dogs; format: in vivo, beagle dogs; details: dog, in vivo, po; beagle dogs, gavage 20 mg/kg, suspension in 0.5% HPMC K4M
assay-endpoint: MRT (h)
Give bare numbers, in h.

Q: Please report MRT for the following compound: C[C@@H]1COC2NC=NC=C2c2cc(C(=O)Nc3ccc(OC(F)(F)Cl)cc3)cc3nc(C(F)F)n1c23 (stereo partly shown) [Crystal form A of p-tosylate]
A: 5.47

---

test: Pharmacokinetic study in rats; assay type: in vivo; conditions: in vivo; Rat PO 10 mg/kg, suspension in 0.5% HPMC K4M
assay-endpoint: Tmax (h)
Give bare numbers, in h.

Q: Identify the reported Tmax for the following entry. C[C@@H]1COC2NC=NC=C2c2cc(C(=O)Nc3ccc(OC(F)(F)Cl)cc3)cc3nc(C(F)F)n1c23 (stereo partly shown) [Crystal form A of p-tosylate]
A: 1

---

assay: Pharmacokinetic study in rats; assay type: in vivo; settings: in vivo; Rat PO 10 mg/kg, suspension in 0.5% HPMC K4M
assay-endpoint: AUC(0-inf) (ng·h/mL)
One number for each entry, in ng·h/mL.

Q: Input C[C@@H]1COC2NC=NC=C2c2cc(C(=O)Nc3ccc(OC(F)(F)Cl)cc3)cc3nc(C(F)F)n1c23 (stereo partly shown) [Crystal form A of p-tosylate] , output reported AUC(0-inf).
A: 2600

---

assay: Pharmacokinetic study in rats; assay type: in vivo; details: in vivo; Rat PO 10 mg/kg, suspension in 0.5% HPMC K4M
assay-endpoint: MRT (h)
Answers are plain numbers, in h.

Q: Identify MRT associated with the compound C[C@@H]1COC2NC=NC=C2c2cc(C(=O)Nc3ccc(OC(F)(F)Cl)cc3)cc3nc(C(F)F)n1c23 (stereo partly shown) [Crystal form A of p-tosylate]
A: 2.86

---

test: Pharmacokinetic study in rats; format: in vivo; settings: in vivo; Rat PO 30 mg/kg, suspension in 0.5% HPMC K4M
assay-endpoint: Tmax (h)
Numbers only, in h.

Q: Let me know recorded Tmax for C[C@@H]1COC2NC=NC=C2c2cc(C(=O)Nc3ccc(OC(F)(F)Cl)cc3)cc3nc(C(F)F)n1c23 (stereo partly shown) [Crystal form A of p-tosylate] , thanks.
A: 1

---

test: Pharmacokinetic study in rats; type: in vivo; settings: in vivo; Rat PO 30 mg/kg, suspension in 0.5% HPMC K4M
assay-endpoint: Cmax (ng/mL)
One number for each entry, in ng/mL.

Q: Please report Cmax for the following compound: C[C@@H]1COC2NC=NC=C2c2cc(C(=O)Nc3ccc(OC(F)(F)Cl)cc3)cc3nc(C(F)F)n1c23 (stereo partly shown) [Crystal form A of p-tosylate]
A: 4510

---

test: Pharmacokinetic study in rats; format: in vivo; conditions: in vivo; Rat PO 10 mg/kg, suspension in 0.5% HPMC K4M
assay-endpoint: Cmax (ng/mL)
Give bare numbers, in ng/mL.

Q: Quote Cmax reported for C[C@@H]1COC2NC=NC=C2c2cc(C(=O)Nc3ccc(OC(F)(F)Cl)cc3)cc3nc(C(F)F)n1c23 (stereo partly shown) [Crystal form A of p-tosylate] please.
A: 881

---

assay: Pharmacokinetic study in dogs; type: in vivo, beagle dogs; settings: dog, in vivo, po; beagle dogs, gavage 20 mg/kg, suspension in 0.5% HPMC K4M
assay-endpoint: Tmax (h)
Give bare numbers, in h.

Q: Provide measured Tmax value, entry: C[C@@H]1COC2NC=NC=C2c2cc(C(=O)Nc3ccc(OC(F)(F)Cl)cc3)cc3nc(C(F)F)n1c23 (stereo partly shown) [Crystal form A of p-tosylate]
A: 1.33

---

assay: Pharmacokinetic study in rats; assay type: in vivo; conditions: in vivo; Rat PO 30 mg/kg, suspension in 0.5% HPMC K4M
assay-endpoint: MRT (h)
Numbers only, in h.

Q: Give the measured MRT for C[C@@H]1COC2NC=NC=C2c2cc(C(=O)Nc3ccc(OC(F)(F)Cl)cc3)cc3nc(C(F)F)n1c23 (stereo partly shown) [Crystal form A of p-tosylate]
A: 2.97

---

experiment: Pharmacokinetic study in dogs; format: in vivo, beagle dogs; details: dog, in vivo, po; beagle dogs, gavage 20 mg/kg, suspension in 0.5% HPMC K4M
assay-endpoint: AUC(0-inf) (ng·h/mL)
Answers are plain numbers, in ng·h/mL.

Q: Identify measured AUC(0-inf) associated with C[C@@H]1COC2NC=NC=C2c2cc(C(=O)Nc3ccc(OC(F)(F)Cl)cc3)cc3nc(C(F)F)n1c23 (stereo partly shown) [Crystal form A of p-tosylate]
A: 40400
